target: CD16α (FcγRIIIa) V158 allotype, CD16α-6His (UniProt P08637 P08637:17-208); test: filter; dot blot; allotype not specified for this assay; conditions: tags: 6His
Sequence (P08637 17-208, one chain of several): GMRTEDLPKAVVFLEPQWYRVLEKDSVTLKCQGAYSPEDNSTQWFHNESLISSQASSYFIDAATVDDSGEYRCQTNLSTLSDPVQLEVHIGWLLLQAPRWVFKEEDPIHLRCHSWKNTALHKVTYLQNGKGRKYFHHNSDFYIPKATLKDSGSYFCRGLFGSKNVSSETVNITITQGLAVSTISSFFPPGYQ
Mark each entry 1 if its Kd sits below 50 nM, and -1 for all others.

binder: bsA16 (ssDNA) DNA: GAGTGCGTAATGGTACGATTTGGGAAGTGGCTTGGGGTGGGATTAGTTTTGGAGTACTCGCTCCGGAGGGAAAAGTTATCAGGCAGAGGGGAGGGTCGGGTATCGGCGTGTTCGGGGGATCTGCGATTAGTTTTGGAGTACTCGCTCC
class name: -1
--
binder: bsA15 (ssDNA) DNA: GGAGGGAAAAGTTATCAGGCAGAGGGGAGGGTCGGGTATCGGCGTGTTCGGGGGATCTGCGATTAGTTTTGGAGTACTCGCTCCGGAGGGAAAAGTTATCAGGCTGGATGGTAGCTCGGTCGGGGTGGGTGGGTTGGCAAGTCTGATTAGTTTTGGAGTACTCGCTCC
class name: -1
--
binder: CCACTGCGGGGGTCTATACGTGAGGAAGAAGTGG (ssDNA) [-19CLN0020-31 (34mer, MS3)]
class name: 1
--
binder: bsA17 (ssDNA) DNA: CCACTGCGGGGGTCTATACGTGAGGAAGAAGTGGGCAGGTCGGAGGGAAAAGTTATCAGGCTGGATGGTAGCTCGGTCGGGGTGGGTGGGTTGGCAAGTCTGATTAGTTTTGGAGTACTCGCTCC
class name: 1
--
binder: bsA31 (ssDNA) DNA: CCACTGCGGGGGTCTATACGTGAGGAAGAAGTGGGCAGGTCAAAAAAAAAAAAAAAGAGTGCGTAATGGTACGATTTGGGAAGTGGCTTGGGGTGGGATTAGTTTTGGAGTACTCGCTCC
class name: 1
